target: recombinant human HPK1 (Homo sapiens (Human)); experiment: HPK1 kinase assay (ADP-Glo); details: 25 μM ATP, MBP substrate
Sequence (Q92918 whole entry): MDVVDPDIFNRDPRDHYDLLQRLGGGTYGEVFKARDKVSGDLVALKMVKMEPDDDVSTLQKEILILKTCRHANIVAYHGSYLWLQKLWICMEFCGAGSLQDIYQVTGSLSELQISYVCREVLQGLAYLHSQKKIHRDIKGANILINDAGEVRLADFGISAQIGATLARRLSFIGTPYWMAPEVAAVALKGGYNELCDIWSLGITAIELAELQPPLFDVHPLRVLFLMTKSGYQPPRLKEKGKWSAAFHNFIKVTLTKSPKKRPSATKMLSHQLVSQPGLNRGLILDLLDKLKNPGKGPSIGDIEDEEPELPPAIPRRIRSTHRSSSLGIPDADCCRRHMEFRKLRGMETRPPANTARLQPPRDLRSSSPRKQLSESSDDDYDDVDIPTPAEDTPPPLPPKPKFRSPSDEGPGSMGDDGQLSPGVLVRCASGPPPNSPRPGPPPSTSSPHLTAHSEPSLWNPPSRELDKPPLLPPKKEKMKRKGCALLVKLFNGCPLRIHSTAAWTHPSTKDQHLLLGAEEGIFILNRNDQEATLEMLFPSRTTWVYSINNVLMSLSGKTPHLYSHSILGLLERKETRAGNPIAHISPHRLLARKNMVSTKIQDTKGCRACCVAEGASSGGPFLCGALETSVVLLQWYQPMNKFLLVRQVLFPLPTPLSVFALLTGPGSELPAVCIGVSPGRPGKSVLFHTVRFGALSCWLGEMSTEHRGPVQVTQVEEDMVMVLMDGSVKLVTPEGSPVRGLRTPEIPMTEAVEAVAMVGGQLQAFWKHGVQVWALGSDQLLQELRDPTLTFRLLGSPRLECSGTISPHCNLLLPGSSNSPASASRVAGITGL
VALUE_KIND: IC50

molecule=CN1CCN(c2c(F)c(Cl)c(-c3ccc4nc(NC(=O)[C@@H]5C[C@@H]5F)cn4c3)c3cn[nH]c23)C1=O measured_result="< 100 nM"
molecule="Cc1c(F)c(S(C)(=O)=O)c2[nH]ncc2c1-c1ccc2nc(NC(=O)[C@@H]3C[C@@H]3F)cn2c1 [Example 302]" measured_result="101 to 500 nM"
molecule=CSc1c(F)c(Cl)c(-c2ccc3nc(NC(=O)[C@@H]4C[C@@H]4F)sc3c2)c2cn[nH]c12 measured_result="< 100 nM"
molecule=O=C(Nc1cn2cc(-c3c(Cl)c(F)cc4[nH]ncc34)ccc2n1)[C@@H]1C[C@@H]1F measured_result="< 100 nM"
molecule=O=C(Nc1nc2ccc(-c3c(F)c(C(F)(F)F)cc4[nH]ncc34)nc2s1)[C@@H]1C[C@@H]1F measured_result="> 1000 nM"
molecule=COc1ccc2[nH]ncc2c1-c1ccc2nc(NC(=O)C3CC3)cn2c1 measured_result="101 to 500 nM"
molecule=Cc1c(F)c(N(C)CCO)c2[nH]ncc2c1-c1ccn2nc(NC(=O)[C@@H]3C[C@@H]3F)cc2c1 measured_result="< 100 nM"
molecule=CCc1c(F)c(SCC#N)c2[nH]ncc2c1-c1ccn2nc(NC(=O)[C@@H]3C[C@@H]3F)cc2c1 measured_result="< 100 nM"
molecule=CSc1c(F)cc2[nH]ncc2c1-c1ccn2nc(NC(=O)[C@@H]3C[C@@H]3F)cc2c1 measured_result="< 100 nM"
molecule=CCc1c(F)c(N(C)CC)c2[nH]ncc2c1-c1ccn2nc(NC(=O)[C@@H]3C[C@@H]3F)cc2c1 measured_result="< 100 nM"
molecule=CCc1c(F)c(N(C)C)c2[nH]ncc2c1-c1ccc2nc(NC(=O)[C@@H]3C[C@@H]3F)sc2n1 measured_result="< 100 nM"
molecule=CSc1c(F)c(N(C)C)c2[nH]ncc2c1-c1ccc2nc(NC(=O)[C@@H]3C[C@@H]3F)cn2c1 measured_result="< 100 nM"
molecule=C=Cc1ccc2[nH]ncc2c1-c1ccc2nc(NC(=O)[C@@H]3C[C@@H]3F)sc2c1 measured_result="101 to 500 nM"
molecule=CSc1c(F)c(Cl)c(-c2ccc3nc(NC(=O)[C@@H]4C[C@@H]4F)sc3n2)c2cn[nH]c12 measured_result="< 100 nM"
molecule="NC1CCCN(c2c(F)c(Cl)c(-c3ccc4nc(NC(=O)[C@@H]5C[C@@H]5F)sc4c3)c3cn[nH]c23)C1 (some centres unmarked)" measured_result="< 100 nM"
molecule=Cc1c(F)c(SCCO)c2[nH]ncc2c1-c1ccc2nc(NC(=O)[C@@H]3C[C@@H]3F)sc2n1 measured_result="< 100 nM"
molecule=Cc1c(F)c(C(=O)N(C)C)c2[nH]ncc2c1-c1ccc2nc(NC(=O)[C@@H]3C[C@@H]3F)sc2c1 measured_result="< 100 nM"
molecule=CNCCN(C)c1c(F)c(Cl)c(-c2ccc3nc(NC(=O)[C@@H]4C[C@@H]4F)sc3c2)c2cn[nH]c12 measured_result="< 100 nM"
molecule=CN(CC#N)C(=O)c1c(F)c(Cl)c(-c2ccn3nc(NC(=O)[C@@H]4C[C@@H]4F)cc3c2)c2cn[nH]c12 measured_result="< 100 nM"
molecule=CC(=O)N(C)c1c(F)c(Cl)c(-c2ccn3nc(NC(=O)[C@@H]4C[C@@H]4F)cc3c2)c2cn[nH]c12 measured_result="< 100 nM"
